# Tested on: PPARg:RXRa DBDmut IVT, anti-RXR (DBD mutation: RXRa K156A/R161A, NR concentration 270 nM, RXRa partner concentration 90 nM)
# experiment summary: PBM binding z-score (relative to random genomic background probes); higher = stronger binding; sequences stand for … in GC…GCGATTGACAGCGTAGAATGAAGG
So I've got a bunch of sequences here, and I need their PBM binding z-score values.
Quick one: just the number, no unit, thanks!

Task: Report PBM binding z-score for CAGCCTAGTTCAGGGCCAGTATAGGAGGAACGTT
Output: -0.416

Task: Give the reported value of PBM binding z-score for this record: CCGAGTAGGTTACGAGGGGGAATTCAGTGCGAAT
Output: 4.48

Task: Recall and state the measured PBM binding z-score for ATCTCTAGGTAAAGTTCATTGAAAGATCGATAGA .
Output: 2.31

Task: Supply measured PBM binding z-score of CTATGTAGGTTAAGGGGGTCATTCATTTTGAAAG in your reply.
Output: 7.22

Task: Indicate its recorded PBM binding z-score; the sequence in question is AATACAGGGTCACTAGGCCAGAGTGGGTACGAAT
Output: 3.88

Task: Please report PBM binding z-score for the following sequence: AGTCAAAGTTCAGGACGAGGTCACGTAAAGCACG
Output: 0.746

Task: For the sequence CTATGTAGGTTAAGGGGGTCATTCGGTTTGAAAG , report PBM binding z-score.
Output: 6.81

Task: Give reported PBM binding z-score value for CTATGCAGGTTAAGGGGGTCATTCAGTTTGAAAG
Output: 4.72

Task: Answer with reported PBM binding z-score of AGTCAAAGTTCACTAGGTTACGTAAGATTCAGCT
Output: 3.75

Task: Provide one value: measured PBM binding z-score of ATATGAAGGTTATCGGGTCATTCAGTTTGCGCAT
Output: 3.47

Task: Give the measured PBM binding z-score for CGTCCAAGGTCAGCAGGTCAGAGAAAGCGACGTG
Output: 3.52

Task: For the sequence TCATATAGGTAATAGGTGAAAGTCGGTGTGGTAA , report PBM binding z-score.
Output: 4.73

Task: Fill in PBM binding z-score for record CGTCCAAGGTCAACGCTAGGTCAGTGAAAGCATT
Output: 3.48

Task: Name the recorded PBM binding z-score of the sequence listed here: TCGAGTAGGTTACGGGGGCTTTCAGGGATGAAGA
Output: 4.35

Task: Return the recorded PBM binding z-score value; entry: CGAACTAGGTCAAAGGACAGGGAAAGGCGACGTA
Output: 7.68

Task: Check the records and state PBM binding z-score for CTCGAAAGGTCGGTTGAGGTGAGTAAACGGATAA
Output: -0.271

Task: Quote PBM binding z-score reported for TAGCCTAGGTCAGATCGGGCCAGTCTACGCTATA please.
Output: 0.403

Task: Report measured PBM binding z-score; entry is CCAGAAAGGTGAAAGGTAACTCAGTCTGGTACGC
Output: 4.19

Task: Give reported PBM binding z-score value for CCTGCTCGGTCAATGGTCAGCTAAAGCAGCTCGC
Output: 0.753

----------
Provide the reported PBM binding z-score of each item.
# Tested on: PXR:RXRa (NR concentration 270 nM, RXRa partner concentration 90 nM)
# experiment summary: PBM binding z-score (relative to random genomic background probes); higher = stronger binding; sequences stand for … in GC…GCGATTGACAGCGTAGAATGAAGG
Give the figure only, with no unit attached.

Task: Specify PBM binding z-score for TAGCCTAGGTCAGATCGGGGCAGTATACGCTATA and stop.
Output: 1.89

Task: Please look at this sequence and report its PBM binding z-score: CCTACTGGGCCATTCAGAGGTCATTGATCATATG
Output: 4.8

Task: Check the records and state PBM binding z-score for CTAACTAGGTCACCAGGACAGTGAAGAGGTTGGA
Output: 1.42

Task: Annotate the sequence CCGAGTAGGTTACGAGCGGGCATTCAGTGCGAAT with its measured PBM binding z-score.
Output: 1.73

Task: Output measured PBM binding z-score for this item: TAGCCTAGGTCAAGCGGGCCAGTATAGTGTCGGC
Output: 1.38

Task: Give the reported PBM binding z-score for this sequence. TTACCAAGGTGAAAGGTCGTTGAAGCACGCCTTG
Output: 4.44

Task: Assign PBM binding z-score to the following record: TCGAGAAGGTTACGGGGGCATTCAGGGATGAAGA
Output: 3.71

Task: Output measured PBM binding z-score for this item: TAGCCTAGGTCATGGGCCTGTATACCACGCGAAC
Output: 1.82

Task: Please look at this sequence and report its PBM binding z-score: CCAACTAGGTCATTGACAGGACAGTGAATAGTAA
Output: 1.68

Task: Provide measured PBM binding z-score value, entry: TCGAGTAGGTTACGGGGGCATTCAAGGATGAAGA
Output: 3.1

Task: Read the entry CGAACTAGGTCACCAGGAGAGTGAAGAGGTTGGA and write its reported PBM binding z-score.
Output: 1.22

Task: Return value of PBM binding z-score for input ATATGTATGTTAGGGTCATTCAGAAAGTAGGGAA , no commentary.
Output: 4.24

Task: Indicate its recorded PBM binding z-score; the sequence in question is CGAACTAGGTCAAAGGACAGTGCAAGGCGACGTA
Output: 1.31

Task: Identify the reported PBM binding z-score for the following entry. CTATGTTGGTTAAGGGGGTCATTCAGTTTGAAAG
Output: 5.75

Task: Dear colleague, please send me the reported PBM binding z-score for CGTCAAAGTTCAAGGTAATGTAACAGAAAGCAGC when you can.
Output: 3.95

Task: Supply PBM binding z-score value. Item: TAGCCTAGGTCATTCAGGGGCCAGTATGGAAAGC
Output: 2.46

Task: Write down PBM binding z-score measured for item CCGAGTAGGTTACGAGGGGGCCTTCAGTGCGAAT
Output: 1.73

Task: Determine its reported PBM binding z-score: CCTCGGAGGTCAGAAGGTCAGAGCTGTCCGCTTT
Output: 4.71

Task: Look up PBM binding z-score of CCCAGTAGGTTACGAGGGGGCATTCAGTGCGAAT and report it.
Output: 4.89

Task: Fill in PBM binding z-score for record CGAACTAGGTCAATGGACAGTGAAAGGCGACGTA
Output: 0.477

Task: Give a short answer stating reported PBM binding z-score for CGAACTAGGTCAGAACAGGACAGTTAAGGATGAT .
Output: 1.15

Task: Give PBM binding z-score for the following sequence: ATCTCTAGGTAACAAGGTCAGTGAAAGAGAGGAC
Output: 1.98

Task: Entry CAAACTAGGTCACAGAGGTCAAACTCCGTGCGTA needs its PBM binding z-score filled in; supply it.
Output: 6.91

Task: For the sequence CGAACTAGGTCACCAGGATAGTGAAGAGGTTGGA , give its reported PBM binding z-score.
Output: 1.4

Task: Give the reported PBM binding z-score for this sequence. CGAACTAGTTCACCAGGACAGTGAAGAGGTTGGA
Output: 0.423

Task: Fill in PBM binding z-score for record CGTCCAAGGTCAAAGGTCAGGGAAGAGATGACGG
Output: 7

Task: Answer with reported PBM binding z-score of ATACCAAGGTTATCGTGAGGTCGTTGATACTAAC
Output: 4.73

Task: Please report the measured PBM binding z-score for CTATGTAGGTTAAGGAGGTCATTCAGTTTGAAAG
Output: 5.67

----------
Please respond with reported PBM binding z-score for every item in the list.
# Tested on: PPARg DBDmut IVT, anti-PPARg (DBD mutation: PPARg1 K132A/R137A, NR concentration 270 nM)
# experiment summary: PBM binding z-score (relative to random genomic background probes); higher = stronger binding; sequences stand for … in GC…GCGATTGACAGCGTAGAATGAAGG
Please give the numeric answer without any surrounding text.

Task: Give measured PBM binding z-score for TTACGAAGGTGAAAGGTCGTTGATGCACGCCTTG (PPARg DBDmut IVT, anti-PPARg (DBD mutation: PPARg1 K132A/R137A, NR concentration 270 nM)).
Output: 0.212

Task: # lookup: PPARg DBDmut IVT, anti-PPARg (DBD mutation: PPARg1 K132A/R137A, NR concentration 270 nM) PBM binding z-score, key = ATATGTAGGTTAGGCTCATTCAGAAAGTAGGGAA
Output: 1.4

Task: Give PPARg DBDmut IVT, anti-PPARg (DBD mutation: PPARg1 K132A/R137A, NR concentration 270 nM) PBM binding z-score for the following sequence: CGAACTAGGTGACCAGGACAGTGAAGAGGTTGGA
Output: -0.325

Task: Name the value of PBM binding z-score reported for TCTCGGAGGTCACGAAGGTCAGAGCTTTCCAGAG when tested on PPARg DBDmut IVT, anti-PPARg (DBD mutation: PPARg1 K132A/R137A, NR concentration 270 nM).
Output: -0.128

Task: Provide PBM binding z-score, recorded with PPARg DBDmut IVT, anti-PPARg (DBD mutation: PPARg1 K132A/R137A, NR concentration 270 nM), of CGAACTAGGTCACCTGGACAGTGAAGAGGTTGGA
Output: -0.299

Task: Please look at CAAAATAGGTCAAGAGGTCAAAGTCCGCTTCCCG and tell me its recorded PBM binding z-score on PPARg DBDmut IVT, anti-PPARg (DBD mutation: PPARg1 K132A/R137A, NR concentration 270 nM).
Output: 1.62

Task: Determine reported PBM binding z-score for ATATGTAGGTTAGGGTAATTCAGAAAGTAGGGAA ; test system: PPARg DBDmut IVT, anti-PPARg (DBD mutation: PPARg1 K132A/R137A, NR concentration 270 nM).
Output: 2.48

Task: Retrieve PBM binding z-score on PPARg DBDmut IVT, anti-PPARg (DBD mutation: PPARg1 K132A/R137A, NR concentration 270 nM); query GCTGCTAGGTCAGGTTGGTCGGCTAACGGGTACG
Output: -0.788

Task: Please report the measured PBM binding z-score for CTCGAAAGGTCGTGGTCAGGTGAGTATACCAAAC tested on PPARg DBDmut IVT, anti-PPARg (DBD mutation: PPARg1 K132A/R137A, NR concentration 270 nM).
Output: 0.484

Task: Determine reported PBM binding z-score for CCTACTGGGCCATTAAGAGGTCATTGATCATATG ; test system: PPARg DBDmut IVT, anti-PPARg (DBD mutation: PPARg1 K132A/R137A, NR concentration 270 nM).
Output: 0.0479

Task: Report PBM binding z-score on PPARg DBDmut IVT, anti-PPARg (DBD mutation: PPARg1 K132A/R137A, NR concentration 270 nM) for this entry: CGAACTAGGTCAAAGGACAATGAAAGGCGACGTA
Output: 0.575

Task: State, for PPARg DBDmut IVT, anti-PPARg (DBD mutation: PPARg1 K132A/R137A, NR concentration 270 nM), measured PBM binding z-score of the sequence listed here: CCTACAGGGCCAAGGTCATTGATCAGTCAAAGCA
Output: -0.319

Task: Look up and report measured PBM binding z-score (PPARg DBDmut IVT, anti-PPARg (DBD mutation: PPARg1 K132A/R137A, NR concentration 270 nM)) for the following sequence: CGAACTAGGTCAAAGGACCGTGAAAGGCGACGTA
Output: 0.0403

Task: Determine reported PBM binding z-score for TCATATAGGTGAAAGGTGAAAGTCGGTGTGGTAA ; test system: PPARg DBDmut IVT, anti-PPARg (DBD mutation: PPARg1 K132A/R137A, NR concentration 270 nM).
Output: 1.28

Task: Provide PPARg DBDmut IVT, anti-PPARg (DBD mutation: PPARg1 K132A/R137A, NR concentration 270 nM) PBM binding z-score reading for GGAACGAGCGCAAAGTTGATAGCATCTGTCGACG .
Output: -1.33

Task: Report its PBM binding z-score with PPARg DBDmut IVT, anti-PPARg (DBD mutation: PPARg1 K132A/R137A, NR concentration 270 nM) as the test system: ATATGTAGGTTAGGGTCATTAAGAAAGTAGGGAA
Output: 3.64

Task: Enter measured PBM binding z-score, system PPARg DBDmut IVT, anti-PPARg (DBD mutation: PPARg1 K132A/R137A, NR concentration 270 nM), for the sequence shown: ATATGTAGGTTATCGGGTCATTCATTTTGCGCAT
Output: 4.21

Task: Find the measured PBM binding z-score of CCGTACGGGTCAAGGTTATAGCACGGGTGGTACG with PPARg DBDmut IVT, anti-PPARg (DBD mutation: PPARg1 K132A/R137A, NR concentration 270 nM) as test system.
Output: -1.41

Task: Provide PBM binding z-score, recorded with PPARg DBDmut IVT, anti-PPARg (DBD mutation: PPARg1 K132A/R137A, NR concentration 270 nM), of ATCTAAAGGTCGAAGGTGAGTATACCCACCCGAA
Output: 0.686

Task: Tell me its PBM binding z-score on PPARg DBDmut IVT, anti-PPARg (DBD mutation: PPARg1 K132A/R137A, NR concentration 270 nM): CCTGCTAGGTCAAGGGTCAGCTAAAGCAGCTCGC
Output: -0.955
